Biological target: T1, mouse programmed cell death protein 1 Fc fusion protein (mPD-1-Fc), mPD-1 C60S (aa 25-167) (Mus musculus, UniProt Q02242, stabilised)
T1 construct: not cleaved; source: Expi293F, purified (Protein A, SEC; dimeric fraction); not shown: Fc (human), C-terminal, kept
Experiment: SPR; Carterra LSA; Fab from the ammonium sulfate precipitate of the culture supernatant immobilised on a NiHC200M chip; hPD-1 (1-1024 nM) or mPD-1-Fc (4-1024 nM) as analyte, fourfold dilution series, no regeneration; HBS-EP pH 7.4, 25 °C; medians over the spots of a construct, KD = koff/kon
Settings: one partner purified
Recorded kon values for a group of binders are listed next.
Quantity Measured: kon (M⁻¹ s⁻¹)

# Binder, Quantity Measured, Result Value
rows = [
    ("toripalimab Fab H.T55A (Fab, V domains shown, heavy chain of Sm3 with this change; numbers count from the chain's first residue; as the light chain of Sm3; source: Brevibacillus, culture supernatant (ammonium sulfate precipitate); not shown: 6xHis, C-terminal, kept; 6xHN, C-terminal, kept) VH: QGQLVQSGAEVKKPGASVKVSCKASGYTFTDYEMHWVRQAPIHGLEWIGVIESEAGGTAYNQKFKGRVTITADKSTSTAYMELSSLRSEDTAVYYCAREGITTVATTYYWYFDVWGQGTTVTVSS VL: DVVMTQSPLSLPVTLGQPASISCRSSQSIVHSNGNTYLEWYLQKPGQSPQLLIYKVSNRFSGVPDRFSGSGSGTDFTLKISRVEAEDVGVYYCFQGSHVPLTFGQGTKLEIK", "kon", 36800),
    ("toripalimab Fab L.P100W (Fab, V domains shown, as the heavy chain of Sm3; light chain of Sm3 with this change; numbers count from the chain's first residue; source: Brevibacillus, culture supernatant (ammonium sulfate precipitate); not shown: 6xHis, C-terminal, kept; 6xHN, C-terminal, kept) VH: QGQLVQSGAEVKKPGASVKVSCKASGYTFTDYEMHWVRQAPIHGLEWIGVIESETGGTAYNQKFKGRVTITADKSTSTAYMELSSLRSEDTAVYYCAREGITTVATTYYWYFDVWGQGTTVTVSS VL: DVVMTQSPLSLPVTLGQPASISCRSSQSIVHSNGNTYLEWYLQKPGQSPQLLIYKVSNRFSGVPDRFSGSGSGTDFTLKISRVEAEDVGVYYCFQGSHVWLTFGQGTKLEIK", "kon", 9410),
]
